Reference source for all entries: ChEMBL document CHEMBL1153180

Experiment: Solubility at pH 7.4
Assay type: physicochemical
Settings: buffer
value-kind: solubility (µg/mL)

{"columns": ["compound", "value-kind", "reported-measurement"],
 "data": [
  ["NC1=NC(c2ccccc2)(c2ccccc2)C2=NCCCN12", "solubility", 55],
  ["Cc1ccoc1C(=O)Nc1cccc(C2(C3CCCCC3)N=C(N)N(C)C2=O)c1 (stereo not given)", "solubility", 41]
]}

----------
Assay: Membrane permeability by PAMPA
Assay type: ADME
Settings: read-out: permeability
value-kind: Papp (×10⁻⁶ cm/s)

Here is how some compounds turned out for Papp.
{"columns": ["compound", "Papp / ×10⁻⁶ cm/s"],
 "data": [
  ["Cc1ccoc1C(=O)Nc1cccc(C2(C3CCCCC3)N=C(N)N(C)C2=O)c1 (stereo not given)", 1.4],
  ["CN1C(=O)C(c2ccccc2)(c2ccccc2)N=C1N", 3]
]}

a: NC1=NC(c2ccccc2)(c2ccccc2)C2=NCCCN12
b: CN1C(=O)C(C2CCCCC2)(C2CCCCC2)N=C1N
c: CN1C(=O)C(c2ccccc2)(C2CCCCC2)N=C1N (stereo not given)
Order the entries by their reported Papp, beginning at the minimum. Could you list the labels in the order requested?
a, b, c
